Where do the numbers come from? From patent US12559492B2.

target.desc: BRAF^V600E protein (Homo sapiens, UniProt P15056, V600E)
Sequence (P15056 whole entry V600E): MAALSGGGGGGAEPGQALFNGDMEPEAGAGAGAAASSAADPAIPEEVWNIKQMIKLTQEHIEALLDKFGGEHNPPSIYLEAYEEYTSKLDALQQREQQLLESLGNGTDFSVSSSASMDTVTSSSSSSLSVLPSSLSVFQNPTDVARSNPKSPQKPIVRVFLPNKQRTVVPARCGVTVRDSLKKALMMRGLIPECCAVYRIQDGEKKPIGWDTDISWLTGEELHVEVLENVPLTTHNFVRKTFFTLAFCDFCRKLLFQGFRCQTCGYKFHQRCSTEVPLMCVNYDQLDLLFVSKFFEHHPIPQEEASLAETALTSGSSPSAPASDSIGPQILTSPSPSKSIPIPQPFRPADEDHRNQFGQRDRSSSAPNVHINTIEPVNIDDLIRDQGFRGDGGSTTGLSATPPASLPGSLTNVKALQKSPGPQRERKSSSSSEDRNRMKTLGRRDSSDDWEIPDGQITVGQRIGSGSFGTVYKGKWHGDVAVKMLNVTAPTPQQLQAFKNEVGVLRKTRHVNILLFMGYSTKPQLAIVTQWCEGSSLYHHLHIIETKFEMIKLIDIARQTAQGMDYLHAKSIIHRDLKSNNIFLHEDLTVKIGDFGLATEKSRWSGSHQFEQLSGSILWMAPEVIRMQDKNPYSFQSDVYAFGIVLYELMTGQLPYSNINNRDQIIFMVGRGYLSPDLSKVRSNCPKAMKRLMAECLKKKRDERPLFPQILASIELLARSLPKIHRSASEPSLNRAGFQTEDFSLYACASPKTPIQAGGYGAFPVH
experiment.notes: HiBiT cellular BRAF V600E degradation assay
Format: cell-based
cond: A375.10 cells (HiBiT tag knocked in at N-terminal of BRAF V600E), 24 h incubation; concentration at which 50% of total cellular BRAF V600E is degraded
Response field label: string, one of Y (DC50 strictly below 4 nM) or N.

Example entries begin here.
CCN(C)S(=O)(=O)Nc1ccc(F)c(C(=O)c2c[nH]c3ncc(-c4cnc(N5CCN(C(=O)CC6(O)CCN(c7ncc(NC8CCC(=O)NC8=O)cc7F)CC6)CC5)nc4)cc23)c1F (centres unmarked)
N
CCN(C)S(=O)(=O)Nc1ccc(F)c(C(=O)c2c[nH]c3ncc(-c4cnc(N5CCN(C(=O)CN6CCC(c7ccc(N8CCC(=O)NC8=O)cc7F)CC6)CC5)nc4)cc23)c1F
N
CCN(C)S(=O)(=O)Nc1ccc(F)c(C(=O)c2c[nH]c3ncc(-c4ccc(N5CCN(C(=O)CC6(O)CCN(c7cc(Cl)c(N8CCC(=O)NC8=O)cc7F)CC6)CC5)nc4)cc23)c1F
Y
CCN(C)S(=O)(=O)Nc1ccc(F)c(C(=O)c2c[nH]c3ncc(-c4ccc(N5CCN(C(=O)CC6(O)CCN(c7ccc(NC8CCC(=O)NC8=O)c(F)c7)CC6)CC5)cc4)cc23)c1F (centres unmarked)
Y

Would you kindly look at the next entry?
[Q] Please let me know if CCN(C)S(=O)(=O)Nc1ccc(F)c(C(=O)c2c[nH]c3ncc(-c4ccc(N5CCN(C(=O)CN6CCC(c7ccc(NC8CCC(=O)NC8=O)cc7)CC6)CC5)nc4)cc23)c1F (centres unmarked) shows DC50 below 4 nM.
[A] N

====

target.desc: BRAF^V600E protein (Homo sapiens, UniProt P15056, V600E)
experiment.notes: HiBiT cellular BRAF V600E degradation assay
Type: cell-based
cond: A375.10 cells (HiBiT tag knocked in at N-terminal of BRAF V600E), 24 h incubation; concentration at which 50% of total cellular BRAF V600E is degraded
Response field label: string, one of yes (DC50 strictly below 9 nM) or no.

O=C1CCC(Oc2ccc(C3CCN(C(=O)NC4CCN(Cc5ccc(-c6cnc7[nH]cc(C(=O)c8c(F)ccc(NS(=O)(=O)N9CCCC9)c8F)c7c6)cc5)CC4)CC3)cc2)C(=O)N1 (stereo not shown)
no
CCN(C)S(=O)(=O)Nc1ccc(F)c(C(=O)c2c[nH]c3ncc(-c4cnc(N5CC[C@H](C(=O)N6CCC(c7ccc(NC8CCC(=O)NC8=O)cc7)CC6)C5)nc4)cc23)c1F (stereo partly shown)
no
CC(C)S(=O)(=O)Nc1ccc(F)c(C(=O)c2c[nH]c3ncc(-c4ccc(N5CCN(C(=O)CN6CCC(c7ccc(C8CCC(=O)NC8=O)cc7)CC6)CC5)nc4)cc23)c1F (stereo not shown)
yes
CCN(C)S(=O)(=O)Nc1ccc(F)c(C(=O)c2c[nH]c3ncc(-c4cnc(N5CCN(C(=O)CN6CCC(c7ccc(NC8CCC(=O)NC8=O)cc7)CC6)CC5)nc4)c(F)c23)c1F (stereo not shown)
yes

[Q] Please let me know if CCN(C)S(=O)(=O)Nc1cccc(C(=O)c2c[nH]c3ncc(-c4ccc(N5CCN(C(=O)CC6CCN(c7ccc(NC8CCC(=O)NC8=O)cc7F)CC6)CC5)nc4)cc23)c1F (stereo not shown) shows DC50 below 9 nM.
[A] no

[Q] Please let me know if CCN(C)S(=O)(=O)Nc1ccc(F)c(C(=O)c2c[nH]c3ncc(-c4cnc(N5CCN(C(=O)CC6(O)CCN(c7ccc(NC8CCC(=O)NC8=O)cc7F)CC6)CC5)nc4)cc23)c1F (stereo not shown) shows DC50 below 9 nM.
[A] yes

[Q] Please let me know if CCN(C)S(=O)(=O)Nc1ccc(F)c(C(=O)c2c[nH]c3ncc(-c4cnc(N5CCN(C(=O)CN6CCC(c7ccc(N[C@H]8CCC(=O)NC8=O)cc7)CC6)CC5)nc4)cc23)c1F [Example 25] shows DC50 below 9 nM.
[A] yes

====

target.desc: BRAF^V600E protein (Homo sapiens, UniProt P15056, V600E)
experiment.notes: HiBiT cellular BRAF V600E degradation assay
Type: cell-based
cond: A375.10 cells, 24 h incubation; Emax = amount of residual protein remaining in the cell after compound treatment; read-out: HiBit 24 h Emax
Response field label: string, one of Met (Emax strictly below 10%) or Not met.

Example entries begin here.
CC(C)S(=O)(=O)Nc1ccc(F)c(C(=O)c2c[nH]c3ncc(-c4cnc(N5CCN(C(=O)CN6CCC(c7ccc8c(N9CCC(=O)NC9=O)nn(C)c8c7)CC6)CC5)nc4)cc23)c1F
Met
CCN(C)S(=O)(=O)Nc1ccc(F)c(C(=O)c2c[nH]c3ncc(-c4cnc(N5CCN(C(=O)CN6CCC(c7ccc(NC89CC(C8)C(=O)NC9=O)cc7)CC6)CC5)nc4)cc23)c1F
Met

[Q] Please let me know if CCN(C)S(=O)(=O)Nc1ccc(F)c(C(=O)c2c[nH]c3ncc(-c4cnc(N5CCC(NC(=O)CN6CCC(c7ccc(OC8CCC(=O)NC8=O)cn7)CC6)CC5)nc4)cc23)c1F (centres unmarked) shows Emax below 10%.
[A] Not met

[Q] Please let me know if `CCN(C)S(=O)(=O)Nc1ccc(F)c(C(=O)c2c[nH]c3ncc(-c4ccc(N5CCN(C(=O)CC6(O)CCN(c7ccc(N[C@H]8CCC(=O)NC8=O)cc7F)CC6)CC5)nc4)cc23)c1F` shows Emax below 10%.
[A] Met

[Q] Please let me know if CCN(C)S(=O)(=O)Nc1ccc(F)c(C(=O)c2c[nH]c3ncc(-c4ccc(N5CCN(C(=O)CC6(O)CCN(c7ccc(NC8CCC(=O)NC8=O)cc7F)CC6)CC5)nc4)cc23)c1F (centres unmarked) shows Emax below 10%.
[A] Met

====

Examples of compounds with documented DC50 follow.
target.desc: BRAF^V600E protein (Homo sapiens, UniProt P15056, V600E)
experiment.notes: HiBiT cellular BRAF V600E degradation assay
Format: cell-based
cond: A375.10 cells (HiBiT tag knocked in at N-terminal of BRAF V600E), 24 h incubation; concentration at which 50% of total cellular BRAF V600E is degraded
Your answer is read as nM, so omit the unit and give the number.

Worked examples, 2 compounds total:
CCN(C)S(=O)(=O)Nc1ccc(F)c(C(=O)c2c[nH]c3ncc(-c4ccc(N5CCN(CC(=O)N6CCC(c7ccc(OC8CCC(=O)NC8=O)cc7)CC6)CC5)nc4)cc23)c1F (centres unmarked) [Example A3]
46
O=C1CCC(Oc2ccc(C3CCN(CC(=O)N4CC5(C4)CN(c4ccc(-c6cnc7[nH]cc(C(=O)c8c(F)ccc(NS(=O)(=O)N9CC[C@@H](F)C9)c8F)c7c6)cn4)C5)CC3)cc2)C(=O)N1 (some centres unmarked) [Example A115]
204

Measured DC50 of CCN(C)S(=O)(=O)Nc1ccc(F)c(C(=O)c2c[nH]c3ncc(-c4ccc(N5CCN(C(=O)CN(C)C(=O)Cc6ccc(NC7CCC(=O)NC7=O)cc6)CC5)nc4)cc23)c1F (centres unmarked) [Example A39] : 35

Measured DC50 of CCN(C)S(=O)(=O)Nc1ccc(F)c(C(=O)c2c[nH]c3ncc(-c4ccc(CN5CCN(C(=O)CN6CCN(c7ccc(NC8CCC(=O)NC8=O)cc7)CC6)CC5)cc4)cc23)c1F (centres unmarked) [Example 95] : 30.4

Measured DC50 of CCN(C)S(=O)(=O)Nc1ccc(F)c(C(=O)c2c[nH]c3ncc(-c4cnc(N5CCC(N(C)C(=O)CN6CCC(c7ccc(NC8CCC(=O)NC8=O)cn7)CC6)CC5)nc4)cc23)c1F (centres unmarked) [Example A92, formic acid] : 8

====

target.desc: BRAF^V600E protein (Homo sapiens, UniProt P15056, V600E)
experiment.notes: HiBiT cellular BRAF V600E degradation assay
Assay type: cell-based
cond: A375.10 cells (HiBiT tag knocked in at N-terminal of BRAF V600E), 24 h incubation; concentration at which 50% of total cellular BRAF V600E is degraded
Examples of molecules with documented DC50 follow.
Your answer is read as µM, so omit the unit and give the number.

Worked examples, 8 molecules total:
CCN(C)S(=O)(=O)Nc1cccc(C(=O)c2c[nH]c3ncc(-c4ccc(N5CCN(C(=O)CC6(O)CCN(c7ccc(NC8CCC(=O)NC8=O)cn7)CC6)CC5)nc4)cc23)c1F (stereo not shown)
0.0263
CCN(C)S(=O)(=O)Nc1ccc(F)c(C(=O)c2c[nH]c3ncc(-c4cnc(N5CCN(C(=O)CN6CCN(c7ccc(NC8CCC(=O)NC8=O)cc7)CC6)CC5)nc4)cc23)c1F (stereo not shown) [Example A16]
0.008
CCN(C)S(=O)(=O)Nc1ccc(F)c(C(=O)c2c[nH]c3ncc(-c4ccc(CN5CCN(C(=O)CCCN6CCC(c7ccc(NC8CCC(=O)NC8=O)cc7)CC6)CC5)cc4)cc23)c1F (stereo not shown)
0.166
CCN(C)S(=O)(=O)Nc1ccc(F)c(C(=O)c2c[nH]c3ncc(-c4ccc(N5CCN(C(=O)CC6(O)CCN(c7ccc(N[C@H]8CCC(=O)NC8=O)cc7Cl)CC6)CC5)nc4)cc23)c1F
0.00173
CC(C)S(=O)(=O)Nc1ccc(F)c(C(=O)c2c[nH]c3ncc(-c4ccc(N5CCN(C(=O)CN6CCC(c7ccc(N8CCC(=O)NC8=O)cc7)CC6)CC5)nc4)cc23)c1F
0.014
CCN(C)S(=O)(=O)Nc1ccc(F)c(C(=O)c2c[nH]c3ncc(-c4cnc(N5CCN(C(=O)CN6CCC(c7ccc(NC8CCC(=O)NC8=O)cc7)CC6)CC5)nc4)cc23)c1F (stereo not shown) [Example A10]
0.003
CCN(C)S(=O)(=O)Nc1ccc(F)c(C(=O)c2c[nH]c3ncc(-c4cnc(N5CCN(C(=O)CC6(O)CCN(c7ccc(C8CCC(=O)NC8=O)cc7F)CC6)CC5)nc4)cc23)c1F (racemic)
0.00273
CCN(C)S(=O)(=O)Nc1ccc(F)c(C(=O)c2c[nH]c3ncc(-c4cnc(N5CCC(n6cc7c(n6)CCN(c6ccc(NC8CCC(=O)NC8=O)cc6)C7)CC5)nc4)cc23)c1F (stereo not shown)
0.0166

Measured DC50 of CCN(C)S(=O)(=O)Nc1ccc(F)c(C(=O)c2c[nH]c3ncc(-c4ccc(CN5CCN(C(=O)CN6CCC(c7ccc(NC8CCC(=O)NC8=O)cc7)CC6)CC5)cc4)cc23)c1F (stereo not shown) : 0.019

Measured DC50 of CCN(C)S(=O)(=O)Nc1cccc(C(=O)c2c[nH]c3ncc(-c4cnc(N5CCN(C(=O)CC6(O)CCN(c7ccc(NC8CCC(=O)NC8=O)cc7)CC6)CC5)nc4)cc23)c1F (stereo not shown) : 0.00955
